molecular target: OXA-48 (Klebsiella pneumoniae, UniProt Q6XEC0); test: Inhibitory activity on SBL, fluorescent substrate FC-5; assay type: biochemical; conditions: read-out: Inhibitory activity on SBL OXA-48 (IC50 class)
Sequence (Q6XEC0 23-265 limits assumed): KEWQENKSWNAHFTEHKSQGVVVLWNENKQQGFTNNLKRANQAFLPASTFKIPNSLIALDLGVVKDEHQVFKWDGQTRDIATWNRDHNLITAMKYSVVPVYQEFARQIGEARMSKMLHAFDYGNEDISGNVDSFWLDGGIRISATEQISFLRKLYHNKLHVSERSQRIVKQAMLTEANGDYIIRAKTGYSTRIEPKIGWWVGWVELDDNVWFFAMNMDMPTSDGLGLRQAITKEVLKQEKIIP
The following molecules are shown together with reported IC50 values.
attribute.measured: IC50

| molecule | result |
| --- | --- |
| NC1(c2cn(Cc3ccc4c(c3C(=O)O)OB(O)CC4)nn2)CC1 [Compound 41] | 10 to 1000 nM |
| O=C(O)c1c(Cn2ccnn2)ccc2c1OB(O)CC2 [Compound 2] | 10 to 1000 nM |
| NS(=O)(=O)Nc1cnn(Cc2ccc3c(c2C(=O)O)OB(O)CC3)c1 [Compound 34] | < 10 nM |
| NC(=O)c1ccn(Cc2ccc3c(c2C(=O)O)OB(O)CC3)n1 [Compound 20] | < 10 nM |
| N=C(N)Nc1cnn(Cc2ccc3c(c2C(=O)O)OB(O)CC3)c1 [Compound 38] | < 10 nM |
| NC(=O)c1cnn(Cc2ccc3c(c2C(=O)O)OB(O)CC3)c1 [Compound 19] | < 10 nM |
| Nc1cnn(Cc2ccc3c(c2C(=O)O)OB(O)CC3)c1 [Compound 32] | < 10 nM |
| O=C(O)c1c(Cn2cc(C(F)(F)F)cn2)ccc2c1OB(O)CC2 [Compound 16] | < 10 nM |
| Nc1ccc(-c2cn(Cc3ccc4c(c3C(=O)O)OB(O)CC4)nn2)cc1 [Compound 59] | < 10 nM |
| NCCN[C@H]1CC[C@H](CC(=O)N[C@H]2Cc3cccc(C(=O)O)c3OB2O)CC1 [Taniborbactam, reference compound] | 10 to 1000 nM |
| O=C(O)c1c(Cn2ccnn2)ccc2c1OB(O)C1CC21 (stereo not drawn) [Compound 28] | 10 to 1000 nM |
| O=C(O)c1c(Cn2cc3c(n2)CNC3)ccc2c1OB(O)CC2 [Compound 56] | < 10 nM |
| O=C(O)c1c(Cn2cc(F)cn2)ccc2c1OB(O)CC2 [Compound 15] | 10 to 1000 nM |
| CN1Cc2cn(Cc3ccc4c(c3C(=O)O)OB(O)CC4)nc2C1 [Compound 74] | 10 to 1000 nM |
| O=C(O)c1c(Cn2ccc3cncnc32)ccc2c1OB(O)CC2 [Compound 55] | 10 to 1000 nM |
| N#Cc1cnn(Cc2ccc3c(c2C(=O)O)OB(O)CC3)c1 [Compound 17] | < 10 nM |
| NC1CCC(c2cn(Cc3ccc4c(c3C(=O)O)OB(O)CC4)nn2)CC1 (stereo not drawn) [Compound 11] | < 10 nM |
| NC1CN(C(=O)c2cnn(Cc3ccc4c(c3C(=O)O)OB(O)CC4)c2)C1 [Compound 72] | 10 to 1000 nM |
| N=C(N)NCCc1cnn(Cc2ccc3c(c2C(=O)O)OB(O)CC3)c1 [Compound 50] | 10 to 1000 nM |
| CCCc1cn(Cc2ccc3c(c2C(=O)O)OB(O)CC3)nn1 [Compound 4] | 10 to 1000 nM |
| N=C(N)NCCc1cn(Cc2ccc3c(c2C(=O)O)OB(O)CC3)nn1 [Compound 10] | < 10 nM |
| N=C(N)NCc1cnn(Cc2ccc3c(c2C(=O)O)OB(O)CC3)c1 [Compound 37] | < 10 nM |
| NS(=O)(=O)c1ccc(-c2cn(Cc3ccc4c(c3C(=O)O)OB(O)CC4)nn2)cc1 [Compound 62] | < 10 nM |
| NCc1cn(Cc2ccc3c(c2C(=O)O)OB(O)CC3)nn1 [Compound 7] | 10 to 1000 nM |
